- system_under_test: FAD-linked sulfhydryl oxidase ALR (Homo sapiens)
- Sequence (P55789 whole entry): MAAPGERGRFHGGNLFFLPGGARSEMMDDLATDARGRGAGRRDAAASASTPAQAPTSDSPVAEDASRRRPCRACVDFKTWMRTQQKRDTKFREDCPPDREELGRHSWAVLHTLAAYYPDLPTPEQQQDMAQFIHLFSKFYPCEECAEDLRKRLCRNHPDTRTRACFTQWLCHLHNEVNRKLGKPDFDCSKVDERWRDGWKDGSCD
- test_protocol: ALR-catalysed DTT oxidation blockers – biochemical, H2O2 detection, luminescence, cherry-pick, dose response (AID 493248)
Active and inactive are the calls of the source.
Select the matching outcome among TRUE = active, FALSE = inactive

**Q:** What did this assay record as the result for "NNc1nc(-c2ccccc2)cs1" ?
**A:** TRUE

**Q:** What did this assay record as the result for "N#CCC(=O)Nc1ccc(C(=O)NCc2ccccn2)cc1" ?
**A:** TRUE

**Q:** Recorded call for COc1ccc(N2CCN(C(c3cccs3)C(C)NS(C)(=O)=O)CC2)cc1 (stereo not given) ?
**A:** TRUE

**Q:** Test call for this molecule, please: "COc1c(F)c(F)c(C(=O)O)c(Nc2ccc(C)cc2C)c1F"
**A:** TRUE

**Q:** I would be grateful if you could indicate the recorded call for "Cc1ccc(S(=O)(=O)Nc2c(C(=O)O)[nH]c3ccccc23)c(C)c1" .
**A:** TRUE

**Q:** Each molecule tested received a call. Report the one for COc1ccc(N2Cc3cccc(C(=O)NC(C)CCc4ccco4)c3C2=O)cc1 (stereo not given) .
**A:** TRUE

**Q:** Field: outcome | Entry: "CN(C)CCCSc1nc2ccccc2s1"
**A:** TRUE

**Q:** Hi, sorry to bother you, what did the test record for N#CCCn1cc(C(CC(=O)c2ccc(Br)cc2)C(=O)O)c2ccccc21 (stereo not given) ?
**A:** FALSE

**Q:** Which outcome did this test record for the molecule "O=C(c1ccco1)N1CCN=C1SCc1ccccc1Cl" ?
**A:** TRUE

**Q:** How did this test come out for "CC(=O)Nc1ccc(SC[C@H](C)CN2CC[C@H](C(C)(C)C)CCC2=O)cc1" ?
**A:** TRUE

* * *

- system_under_test: Corticotropin-releasing factor receptor 2/Corticotropin-releasing factor-binding protein (Homo sapiens, UniProt P24387+Q13324)
- Sequence (Q13324 whole entry): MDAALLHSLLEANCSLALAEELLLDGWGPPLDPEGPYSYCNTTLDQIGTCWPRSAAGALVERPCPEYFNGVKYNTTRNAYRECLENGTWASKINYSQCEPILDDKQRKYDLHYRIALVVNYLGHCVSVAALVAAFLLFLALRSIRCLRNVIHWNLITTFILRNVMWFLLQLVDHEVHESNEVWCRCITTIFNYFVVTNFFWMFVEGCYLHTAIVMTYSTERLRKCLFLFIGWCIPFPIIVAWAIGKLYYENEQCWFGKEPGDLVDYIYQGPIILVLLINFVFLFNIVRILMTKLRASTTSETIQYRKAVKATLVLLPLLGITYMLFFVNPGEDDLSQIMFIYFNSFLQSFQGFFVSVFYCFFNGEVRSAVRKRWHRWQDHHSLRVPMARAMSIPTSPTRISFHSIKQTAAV
- Sequence (P24387 whole entry): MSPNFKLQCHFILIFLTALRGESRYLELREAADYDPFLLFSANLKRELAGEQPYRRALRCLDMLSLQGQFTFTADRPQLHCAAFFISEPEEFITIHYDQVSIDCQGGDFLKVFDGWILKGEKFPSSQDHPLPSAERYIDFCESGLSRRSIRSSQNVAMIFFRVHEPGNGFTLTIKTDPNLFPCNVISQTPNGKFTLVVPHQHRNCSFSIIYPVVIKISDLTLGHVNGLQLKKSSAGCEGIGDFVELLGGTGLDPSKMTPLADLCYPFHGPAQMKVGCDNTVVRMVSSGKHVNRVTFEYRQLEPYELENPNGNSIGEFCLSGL
- test_protocol: activators of CRF receptor 2 with binding protein – uHTS hits, confirmation (AID 602473)
- Format: functional
- reported_conditions: read-out: EC50_Mean
Calls of active or inactive are those of the source.
Answer with one of the outcomes 1.0 (active), 0.0 (inactive)

**Q:** Which outcome was entered for the compound Cc1cc(C)cc(N(C(=O)c2nsc(Cl)c2Cl)C(C(=O)NC2CCCC2)c2ccc(O)cc2)c1 (stereo unspecified) in this test?
**A:** 0.0

**Q:** Record lookup: outcome of this test for "O=C(CSc1ncc(-c2ccccc2)n1C1CCCC1)N1CCc2ccccc21" ?
**A:** 0.0

**Q:** Any idea what this test logged for "O=C(c1ccco1)N1CCN=C1SCc1ccccc1Cl" ?
**A:** 0.0

**Q:** Which result was noted for this compound in the test: "CCOC(=O)N1CCN(C(=O)CSc2nnc(-c3ccc(C(C)(C)C)cc3)o2)CC1"
**A:** 0.0

**Q:** What was the test verdict on "COc1cc(/C=C(\C#N)C(=O)Nc2ccc3c(c2)OCCO3)ccc1O" ?
**A:** 0.0

**Q:** Given "O=C(NN1C(=O)CSC1=S)c1cccnc1" , state the outcome it received in this test.
**A:** 0.0

**Q:** Test call, this compound: "O=C(CSc1nnnn1-c1ccccc1)NCCCN1CCCC1=O"
**A:** 0.0

**Q:** Could you kindly confirm the outcome this assay logged for "COc1cc2[nH]c(=O)n(CCCCCC(=O)NC3CCCC3)c(=O)c2cc1OC" ?
**A:** 0.0

**Q:** Which result was noted for this compound in the test: "O=C1C(=Cc2cccs2)C(=O)c2ccccc21"
**A:** 0.0

**Q:** Called result for "CCS(=O)(=O)Nc1ccc(-c2nc3cccnc3s2)cc1"
**A:** 0.0

**Q:** Hi, do you know how "COc1cc(/C=C/C(=O)OCC(=O)N(CC(C)C)c2c(N)n(Cc3ccccc3)c(=O)[nH]c2=O)ccc1O" came out in this test?
**A:** 1.0

* * *

- system_under_test: Metabotropic glutamate receptor 3 (Rattus norvegicus)
- Sequence (P31422 whole entry): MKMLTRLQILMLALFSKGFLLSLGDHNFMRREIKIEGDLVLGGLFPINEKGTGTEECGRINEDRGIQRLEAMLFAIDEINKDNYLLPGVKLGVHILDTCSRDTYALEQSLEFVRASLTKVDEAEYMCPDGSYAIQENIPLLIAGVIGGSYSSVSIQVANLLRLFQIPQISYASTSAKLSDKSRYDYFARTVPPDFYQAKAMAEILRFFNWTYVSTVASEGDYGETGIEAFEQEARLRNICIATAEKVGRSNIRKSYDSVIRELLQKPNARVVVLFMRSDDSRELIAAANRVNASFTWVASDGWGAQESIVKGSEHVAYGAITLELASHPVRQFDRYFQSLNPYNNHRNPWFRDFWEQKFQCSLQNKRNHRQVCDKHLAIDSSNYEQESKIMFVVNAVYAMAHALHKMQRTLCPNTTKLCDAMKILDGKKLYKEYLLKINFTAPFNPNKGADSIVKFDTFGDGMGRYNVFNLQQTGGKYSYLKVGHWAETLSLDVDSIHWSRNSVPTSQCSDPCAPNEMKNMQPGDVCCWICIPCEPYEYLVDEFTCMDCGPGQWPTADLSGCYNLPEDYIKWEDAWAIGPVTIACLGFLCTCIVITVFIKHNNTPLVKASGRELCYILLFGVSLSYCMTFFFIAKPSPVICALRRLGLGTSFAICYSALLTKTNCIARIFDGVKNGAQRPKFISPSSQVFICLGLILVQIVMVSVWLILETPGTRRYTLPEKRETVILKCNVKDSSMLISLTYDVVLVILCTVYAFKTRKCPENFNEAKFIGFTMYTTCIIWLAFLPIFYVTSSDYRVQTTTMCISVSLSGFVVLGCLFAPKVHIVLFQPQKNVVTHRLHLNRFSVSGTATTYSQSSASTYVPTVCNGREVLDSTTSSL
- test_protocol: inhibition of rat mGlu3 glutamate signaling – HEK/GIRK cells, thallium flux, dose response (AID 651839)
metric_name: pIC50
Note on pIC50: it is the negative log10 of concentration, concentration in mol/L.

// recorded pIC50 for COc1ccc(-c2ccc3cc(C(=O)N4CCCC(CO)C4)ccc3c2)cc1OC (stereo unspecified) : 5.58

* * *

- system_under_test: Phospholipase A2 (Homo sapiens);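 further: confirmatory dose-response counterscreen on phospholipase A2, testing hits that came from an ultra-high-throughput screen for ATG4B inhibitors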
- Sequence (P04054 whole entry): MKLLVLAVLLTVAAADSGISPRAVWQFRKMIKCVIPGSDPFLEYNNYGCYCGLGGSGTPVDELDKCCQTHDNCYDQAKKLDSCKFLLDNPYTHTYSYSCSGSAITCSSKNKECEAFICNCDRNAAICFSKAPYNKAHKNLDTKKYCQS
- Format: functional
Calls of active or inactive are those of the source.
metric_name: IC50

For this compound ( "O=C(Nc1cccc(Cl)c1N1CCCC1)c1cccc(-c2cc3ccccc3oc2=O)c1" ), measured IC50 is 0.978 µM (active)

IC50 in this record for "CCCCCCCCCCCCCCCC[N+](C)(C)CCl" : 8.15 µM (active)

Lookup result for "Cc1ccccc1NC1=C/C(=N\S(=O)(=O)c2ccc(C(=O)O)cc2)c2ccccc2C1=O" ; measured IC50: 15.4 µM (active)

Field IC50 (entry "O=S(=O)(Nc1nc2ccccc2nc1N1CCc2ccccc2C1)c1ccc(Cl)cc1" ) reads 10 µM (active)

* * *

- Tested on: Streptococcus sp. 'group A'
- test_protocol: Streptococcus pyogenes SK(-)GAS viability under kanamycin – luminescence, BacTiterGlo, confirmation, counter-screen for streptokinase expression inhibitor project, dose response (AID 1900)
- Format: functional, organism-based
Calls of active or inactive are those of the source.
Answer each item with its documented EC50.

Kindly note the recorded EC50 for "COc1ccc(-c2cc(-c3ccc(C)cc3)[nH]n2)c(O)c1" , which is 11 µM (active)

Given item "Cc1ccccc1NC1=C/C(=N\S(=O)(=O)c2ccc(C(=O)O)cc2)c2ccccc2C1=O" , the value recorded as its EC50 is 1.67 µM (active)

The measured EC50 associated with "O=S(=O)(Cc1cc(NCc2ccccc2)nc(-c2ccccn2)n1)c1ccccc1" reads 21 µM (active)

Note to self: EC50 recorded for "Cc1ccc2sc(NNC(=O)c3ccc4c(c3)OCCO4)nc2c1C" was 13 µM (active)

Sure, the documented EC50 for "COc1ccc(Nc2ncnc3scc(-c4ccc(OC)cc4)c23)cc1" is 122 µM (active)

Reported EC50 for "O=C(Nc1cccc(-c2nnc(-c3ccccc3)o2)c1)c1ccc(Br)o1" was 9.53 µM (active)

GET /value?item= "Oc1c(N=Nc2ccccn2)ccc2ccccc12" &field=EC50 returns 2.67 µM (active)

For reference, reported EC50 for "COC(=O)c1ccc(NC(=O)c2nc(S(=O)(=O)Cc3cccc(C)c3)ncc2Cl)cc1" stands at 0.941 µM (active)

compound "O=C(N/N=C1/CCC/C1=C(/O)C(F)(F)F)c1ccccc1O" , EC50 observed: 1.44 µM (active)

Entry C[C@@H]1CC[C@@]2(OC1)O[C@H]1C[C@H]3[C@@H]4CC=C5C[C@@H](O)[C@H](O)C[C@]5(C)C4CC[C@]3(C)[C@H]1[C@@H]2C (stereo partly specified) ; EC50 = 4.77 µM (active)

The value of EC50 measured for the compound "CC1=NN(C(=Nc2ccc(C(C)(C)C)cc2)Nc2nnc(C)s2)[C@H](c2ccc(C)cc2)S1" turned out to be 8.28 µM (active)

* * *

- system_under_test: Calpain-2 catalytic subunit (Sus scrofa, UniProt P43367)
- Sequence (P43367 whole entry): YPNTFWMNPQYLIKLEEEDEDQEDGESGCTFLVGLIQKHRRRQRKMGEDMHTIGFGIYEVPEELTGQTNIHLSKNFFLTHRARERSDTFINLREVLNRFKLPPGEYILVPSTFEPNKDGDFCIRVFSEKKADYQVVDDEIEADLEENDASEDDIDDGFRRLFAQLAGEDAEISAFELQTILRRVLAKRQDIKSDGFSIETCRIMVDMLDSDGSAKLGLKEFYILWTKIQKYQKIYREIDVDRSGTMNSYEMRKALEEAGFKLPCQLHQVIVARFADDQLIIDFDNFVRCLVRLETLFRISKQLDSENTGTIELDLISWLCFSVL
- test_protocol: m-calpain protease blockers, concentration series – biochemical, fluorogenic peptide substrate, dose response (AID 1420)
- Format: functional
metric_name: IC50

Query "O=C(N/N=C1/CCCc2ccccc21)c1cc([N+](=O)[O-])cc([N+](=O)[O-])c1" on Calpain-2 catalytic subunit (Sus scrofa, UniProt P43367); IC50 returned: 21.8 µM (not active)

Calpain-2 catalytic subunit (Sus scrofa, UniProt P43367) data for O=S(=O)(c1ccc2c(c1)CCCN2)N1CCCC2CCCCC21 (stereo unspecified) ; its IC50: 12.4 µM (not active)

Measured IC50 for this entry COc1ccc(-c2cc(C(=O)NC(Cc3cc4ccccc4[nH]3)C(=O)O)c(C)o2)cc1OC (stereo unspecified) on Calpain-2 catalytic subunit (Sus scrofa, UniProt P43367): 4.12 µM (not active)

GET /values?item= "CC(C)(C)CC(C)(C)c1ccc(OCC(=O)N/N=C/c2ccc(S(=O)(=O)O)o2)cc1" &system= Calpain-2 catalytic subunit (Sus scrofa, UniProt P43367) returns IC50: > 50 µM (not active)

Field IC50 (system: Calpain-2 catalytic subunit (Sus scrofa, UniProt P43367)) for entry "COc1ccc(/C=C/C(=O)NC(=S)Nc2ccc(C(=O)O)cc2)cc1" = > 50 µM (not active)

Per the reported Calpain-2 catalytic subunit (Sus scrofa, UniProt P43367) data, "O=C1c2ccccc2C(=O)N1CCCCSc1nnnn1-c1ccccc1" has IC50 of 9.41 µM (not active)

IC50 on Calpain-2 catalytic subunit (Sus scrofa, UniProt P43367) for "COc1ccccc1-n1c([S-])c(C(=O)Nc2ccccc2C(F)(F)F)[n+]2ccc(C(=O)NCCO)cc12" is 6.82 µM (not active)

Lab note: compound COc1ccc(N2CCN(C(c3cccs3)C(C)NS(C)(=O)=O)CC2)cc1 (stereo unspecified) tested on Calpain-2 catalytic subunit (Sus scrofa, UniProt P43367); recorded IC50 was 5.8 µM (not active)

Field IC50 (system: Calpain-2 catalytic subunit (Sus scrofa, UniProt P43367)) for entry "O=[N+]([O-])c1ccc(NCCCNS(=O)(=O)c2ccc(Cl)cc2)c(Cl)c1" = 3.17 µM (not active)

Record COc1cccc(C2=CC(c3cccs3)n3nnnc3N2)c1 (stereo unspecified) ; system Calpain-2 catalytic subunit (Sus scrofa, UniProt P43367); IC50 = 1.42 µM (not active)

Entry "CC(C)=CC(=O)OCC(=O)NC(=O)NC(C)(C)C" ; assay system Calpain-2 catalytic subunit (Sus scrofa, UniProt P43367); IC50 recorded at > 50 µM (not active)
